tested on: human BACE-1 (Homo sapiens)
Sequence (P56817 46-457 limits assumed): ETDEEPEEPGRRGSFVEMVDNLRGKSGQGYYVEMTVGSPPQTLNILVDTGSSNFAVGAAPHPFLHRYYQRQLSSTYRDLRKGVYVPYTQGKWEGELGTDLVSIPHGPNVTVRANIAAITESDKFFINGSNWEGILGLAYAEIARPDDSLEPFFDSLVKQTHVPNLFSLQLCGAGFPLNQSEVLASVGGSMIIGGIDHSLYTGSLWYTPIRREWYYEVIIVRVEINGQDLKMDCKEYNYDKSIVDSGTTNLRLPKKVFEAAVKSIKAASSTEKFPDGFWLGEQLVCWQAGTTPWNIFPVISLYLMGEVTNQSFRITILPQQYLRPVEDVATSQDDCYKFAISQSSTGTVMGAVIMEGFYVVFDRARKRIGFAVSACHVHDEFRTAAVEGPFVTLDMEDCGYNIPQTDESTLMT
protocol notes: Test 1: Inhibition of human BACE-1
conditions used: recombinant BACE-1, pH 4.5, fluorescence-quenched APP-derived peptide substrate
Counter-ions that a name gives are not always drawn.
Record form. Attribute: IC50. Fill in for each entry.
// note: answer is a bare numeric in nM

I would be grateful if you could share the reported IC50 for CN1CC(C)(c2cc(NC(=O)c3ncc(Cl)cc3Cl)ccc2F)N=C(N)C1=O (stereo not drawn) [Example 7, hydrochloride] . 68

I would be grateful if you could share the reported IC50 for CN1CC(N)=NC(C)(c2cc(NC(=O)c3ccc(Br)cn3)ccc2F)C1=O (stereo not drawn) . 4100

I would be grateful if you could share the reported IC50 for Cc1cc(Br)cnc1C(=O)Nc1ccc(F)c(C2(C(F)F)CN(C(=O)C3CC3)CC(N)=N2)c1 (stereo not drawn) . 11

I would be grateful if you could share the reported IC50 for N#Cc1ccc(C(=O)Nc2ccc(F)c(C3(C(F)F)CNCC(N)=N3)c2)nc1 (stereo not drawn) . 28

I would be grateful if you could share the reported IC50 for CCN1CC(C)(c2cc(NC(=O)c3ncc(Cl)cc3Cl)ccc2F)N=C(N)C1=O (stereo not drawn) [Example 8, hydrochloride] . 21

I would be grateful if you could share the reported IC50 for COc1cnc(C(=O)Nc2ccc(F)c([C@]3(C(F)F)CNCC(N)=N3)c2)c(N)n1 (single isomer, unassigned) . 20

I would be grateful if you could share the reported IC50 for Cc1cc(Br)cnc1C(=O)Nc1ccc(F)c(C2(C(F)F)CNCC(N)=N2)c1 (stereo not drawn) . 28

I would be grateful if you could share the reported IC50 for COC(=O)N1CC(N)=NC(c2cc(NC(=O)c3ccc(Br)cn3)ccc2F)(C(F)F)C1 (stereo not drawn) . 22

I would be grateful if you could share the reported IC50 for CCN1CC(C)(c2cc(NC(=O)c3ccc(Br)cn3)ccc2F)N=C(N)C1=O (stereo not drawn) [Example 6, hydrochloride] . 51

I would be grateful if you could share the reported IC50 for CCN1CC(C)(c2cc(NC(=O)c3ccc(C#N)cn3)ccc2F)N=C(N)C1=O (stereo not drawn) [Example 14, hydrochloride] . 63

I would be grateful if you could share the reported IC50 for N#Cc1ccc(C(=O)Nc2ccc(F)c(C3(C(F)F)CNC(=O)C(N)=N3)c2)nc1 (stereo not drawn) . 21

I would be grateful if you could share the reported IC50 for CC(=O)N1CC(N)=NC(c2cc(NC(=O)c3ncc(OC(F)F)cc3C)ccc2F)(C(F)F)C1 (stereo not drawn) . 23

I would be grateful if you could share the reported IC50 for CC(C)N1CC(C)(c2cc(NC(=O)c3ccc(Br)cn3)ccc2F)N=C(N)C1=O (stereo not drawn) [Example 9, hydrochloride] . 33

I would be grateful if you could share the reported IC50 for COCCN1CC(C)(c2cc(NC(=O)c3ccc(Br)cn3)ccc2F)N=C(N)C1=O (stereo not drawn) [Example 11, hydrochloride] . 20

I would be grateful if you could share the reported IC50 for Cn1cc(N2CC(C)(c3cc(NC(=O)c4ccc(Br)cn4)ccc3F)N=C(N)C2=O)cn1 (stereo not drawn) [Example 12, hydrochloride] . 20

Recorded values, source patent US20150322038A1.
